Recorded TGI values for a group of molecules are listed next.
- Tested on: UO-31 renal
- assay-info: NCI tumour cell line growth inhibition, 48 h
Number in µM, nothing else.

Before answering, review these 3 worked examples.
| molecule | TGI / µM |
| --- | --- |
| CN(C)CCCNc1ccc2nnn3c4ccc([N+](=O)[O-])cc4c(=O)c1c23 | 9.5 |
| O=C(NC(c1ccccc1)C(O)C(=O)OCc1ccc2c(c1)C(=O)c1ccccc1C2=O)c1ccccc1 (stereo not given) | 10.1 |
| COCN1C(=O)[C@@H]2C[C@@H](OC/C=C/CBr)CN2C(=O)c2ccccc21 | 40.5 |

Moving on to another molecule below.
Identify the measured TGI of Cc1ccc(SCN2CCCCC2)cc1 (tested in a mixture with another compound) for UO-31 renal.
30.2
